test_description: Intrinsic clearance in rat hepatocytes assessed per million cells
Type: ADME, cell-based, Hepatocyte
cond: read-out: CLH
Listing of recorded hepatocyte CLint by entry.
Number in µL/min/1e6 cells, nothing else.

Known results for compounds:
[
  {
    "smiles_representation": "Cc1c[nH]c2ncnc(O[C@H]3CC[C@H](N4CCO[C@H](C)C4)CC3)c12",
    "measured_number": 210
  },
  {
    "smiles_representation": "Cc1c[nH]c2ncnc(O[C@H]3CC[C@H](N4CCO[C@@H](C)C4)CC3)c12",
    "measured_number": 140
  },
  {
    "smiles_representation": "Cc1c[nH]c2ncnc(O[C@H]3CC[C@H](N4C[C@H]5C[C@@H]4CO5)CC3)c12",
    "measured_number": 110
  },
  {
    "smiles_representation": "Cc1c[nH]c2ncnc(O[C@H]3CC[C@H](N4CCOCC4)CC3)c12",
    "measured_number": 180
  }
]

Below: the item to evaluate.
Ask | Return value of hepatocyte CLint for input Cc1c[nH]c2ncnc(O[C@H]3CC[C@H](N4C[C@@H]5C[C@H]4CO5)CC3)c12 , no commentary.
Reply | 36

----------
test_description: Intrinsic permeability in human Caco2 cells
Assay type: ADME, cell-based
cond: Caco-2
assay_readout: Papp (×10⁻⁶ cm/s)
Number in ×10⁻⁶ cm/s, nothing else.

Known results for molecules:
[
  {
    "smiles_representation": "Cc1c[nH]c2ncnc(O[C@H]3CC[C@H](N4CCOCC4)CC3)c12",
    "Papp / ×10⁻⁶ cm/s": 33
  },
  {
    "smiles_representation": "Cc1c[nH]c2ncnc(O[C@H]3CC[C@H](N4CCO[C@H](C)C4)CC3)c12",
    "Papp / ×10⁻⁶ cm/s": 27
  },
  {
    "smiles_representation": "Cc1c[nH]c2ncnc(O[C@H]3CC[C@H](N4CCO[C@@H](C)C4)CC3)c12",
    "Papp / ×10⁻⁶ cm/s": 31
  }
]

Ask | Return value of Papp for input Cc1c[nH]c2ncnc(O[C@H]3CC[C@H](N4C[C@H]5C[C@@H]4CO5)CC3)c12 , no commentary.
Reply | 25

Ask | Return value of Papp for input Cc1c[nH]c2ncnc(O[C@H]3CC[C@H](N4C[C@@H]5C[C@H]4CO5)CC3)c12 , no commentary.
Reply | 29

----------
pIC50: −log10 of the molar value.
pIC50 data for Voltage-gated inwardly rectifying potassium channel KCNH2 (Homo sapiens) follow.

[
  {
    "smiles_representation": "Cc1c[nH]c2ncnc(O[C@H]3CC[C@H](N4CCOCC4)CC3)c12",
    "pIC50": "< 4.40"
  },
  {
    "smiles_representation": "Cc1c[nH]c2ncnc(O[C@H]3CC[C@H](N4CCO[C@H](C)C4)CC3)c12",
    "pIC50": "< 4.40"
  },
  {
    "smiles_representation": "Cc1c[nH]c2ncnc(O[C@H]3CC[C@H](N4C[C@@H]5C[C@H]4CO5)CC3)c12",
    "pIC50": "< 4.40"
  },
  {
    "smiles_representation": "Cc1c[nH]c2ncnc(O[C@H]3CC[C@H](N4CCO[C@@H](C)C4)CC3)c12",
    "pIC50": 4.60
  }
]

Ask | Return value of pIC50 for input Cc1c[nH]c2ncnc(O[C@H]3CC[C@H](N4C[C@H]5C[C@@H]4CO5)CC3)c12 , no commentary.
Reply | < 4.40
